Test target: TDP-43 (Homo sapiens, UniProt Q13148 1-414)
Sequence (Q13148 whole entry): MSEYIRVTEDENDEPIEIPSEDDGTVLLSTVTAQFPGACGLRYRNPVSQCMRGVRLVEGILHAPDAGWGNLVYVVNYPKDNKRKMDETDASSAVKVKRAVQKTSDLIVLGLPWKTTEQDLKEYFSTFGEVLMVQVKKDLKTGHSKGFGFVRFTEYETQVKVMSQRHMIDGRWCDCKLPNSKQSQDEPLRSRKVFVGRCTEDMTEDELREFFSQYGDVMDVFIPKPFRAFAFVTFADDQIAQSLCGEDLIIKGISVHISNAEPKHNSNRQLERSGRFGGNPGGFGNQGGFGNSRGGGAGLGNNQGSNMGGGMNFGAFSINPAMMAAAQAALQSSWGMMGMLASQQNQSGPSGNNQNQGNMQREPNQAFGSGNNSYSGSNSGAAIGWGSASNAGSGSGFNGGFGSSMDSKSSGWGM
Assay summary: RNA Bind-n-Seq with designed 260-mer pool; 25 mM Tris-HCl, 150 mM KCl, 3 mM MgCl2, BSA (printed 500 mg/mL), 20 units/mL SUPERase IN; pH not stated; 500 nM RNA pool, 1 h, 4 C; TDP-43 5, 50, 500 nM; high values mean tight binding
Conditions used: protein: recombinant; tags: SBP (GST cleaved off with PreScission; pGEX-GST-SBP)
The full ranking holds about 9,900 sequences; the median of “r (bound/input frequency ratio)” is about 0.7, and the highest 2% start at about 6.5. The list comes from a sample in which the highest values are over-represented; it also holds close analogues and randomly drawn sequences.
Observable: binding signal

{"Binder": "ENSMUSG00000022095.266|Fam160b2 (ssRNA) RNA: GGGAGUUCUACAGUCCGACGAUCGCUUCGAUAUCCGCAUGCUAUGUGUGUGUGAGAGAGAGAGAGAGAGAGCGAGCUAUGAAUGAAUGUGAGUGUGUGUGUGUGUGUGUGUGAGAGAGAGAGAGAGAGAGAGAGAGCUGUGAGUACACAUGGGUGCUGGUGUGGGACAGGAGCAGAUCUUGGUGGAGUGGGUCUACACUUGAGAUUUGUACUCGUUUGAGAGGCUGGGCAAUACUCAAUGCACUUUGGCAUUUGCAUGGUGUCUUCACAACAGCACAGCAAUAAACAUUGUGAUUGUGUGGACCUCUUGCGGUCGCACUAGUGUGGAAUUCUCGGGUGUCAAGG", "binding signal": "7.33 R (bound/input frequency ratio)"}

Moving on to another binder below.
Look at this binder and give its reported binding signal. ENSMUSG00000022095.264|Fam160b2 (ssRNA) RNA: GGGAGUUCUACAGUCCGACGAUCGCUUCGAUAUCCGCAUGCUAUGUGUGUGUGUGUGUGUGUGUGAGAGAGAGAGAGAGAGAGCGAGCUAUGAAUGAAUGUGAGUGUGUGUGUGUGUGUGUGUGAGAGAGAGAGAGAGAGAGAGAGAGCUGUGAGUACACAUGGGUGCUGGUGUGGGACAGGAGCAGAUCUUGGUGGAGUGGGUCUACACUUGAGAUUUGUACUCGUUUGAGAGGCUGGGCAAUACUCAAUGCACUUUGGCAUUUGCAUGGUGUCUUCACAACAGCACAGCAAUAAACAUUGUCUCUUGCGGUCGCACUAGUGUGGAAUUCUCGGGUGUCAAGG
5.78 R (bound/input frequency ratio)

Reference source: paper PMC12864922
